details: in DMF, 303.15 K
measurement-name: solubility (mole fraction)
Just the number, please, no unit attached.

Can you share its solubility (mole fraction)? I mean this compound: "CC(=O)Oc1ccc(C(c2ccc(OC(C)=O)cc2)c2ccccn2)cc1" 0.00407

###

conditions: in methanol, 273.15 K
measurement-name: solubility (mole fraction)
Just the number, please, no unit attached.

Can you share its solubility (mole fraction)? I mean this molecule: "CC(=O)Oc1ccc(C(c2ccc(OC(C)=O)cc2)c2ccccn2)cc1" 4.9e-05

###

conditions: in ethanol, 273.15 K
measurement-name: solubility (mole fraction)
Just the number, please, no unit attached.

Can you share its solubility (mole fraction)? I mean this compound: "CC(=O)Oc1ccc(C(c2ccc(OC(C)=O)cc2)c2ccccn2)cc1" 4.5e-05

###

settings: in isopropanol, 283.15 K
measurement-name: solubility (mole fraction)

Can you share its solubility (mole fraction)? I mean this compound: "CC(=O)Oc1ccc(C(c2ccc(OC(C)=O)cc2)c2ccccn2)cc1" 6.5e-05

###

conditions: in acetonitrile, 293.15 K
measurement-name: solubility (mole fraction)
Just the number, please, no unit attached.

Can you share its solubility (mole fraction)? I mean this compound: "CC(=O)Oc1ccc(C(c2ccc(OC(C)=O)cc2)c2ccccn2)cc1" 0.00185

###

conditions: in ethanol, 278.15 K
measurement-name: solubility (mole fraction)

Can you share its solubility (mole fraction)? I mean this compound: "CC(=O)Oc1ccc(C(c2ccc(OC(C)=O)cc2)c2ccccn2)cc1" 5.8e-05

###

settings: in NMP, 308.15 K
measurement-name: solubility (mole fraction)
Just the number, please, no unit attached.

Can you share its solubility (mole fraction)? I mean this molecule: "CC(=O)Oc1ccc(C(c2ccc(OC(C)=O)cc2)c2ccccn2)cc1" 0.00418

###

settings: in ethanol, 293.15 K
measurement-name: solubility (mole fraction)

Can you share its solubility (mole fraction)? I mean this compound: "CC(=O)Oc1ccc(C(c2ccc(OC(C)=O)cc2)c2ccccn2)cc1" 0.00011

###

conditions: in NMP, 273.15 K
measurement-name: solubility (mole fraction)
Just the number, please, no unit attached.

Can you share its solubility (mole fraction)? I mean this compound: "CC(=O)Oc1ccc(C(c2ccc(OC(C)=O)cc2)c2ccccn2)cc1" 0.00187

###

conditions: in n-butanol, 303.15 K
measurement-name: solubility (mole fraction)

Can you share its solubility (mole fraction)? I mean this compound: "CC(=O)Oc1ccc(C(c2ccc(OC(C)=O)cc2)c2ccccn2)cc1" 0.000223

###

settings: in DMF, 288.15 K
measurement-name: solubility (mole fraction)
Just the number, please, no unit attached.

Can you share its solubility (mole fraction)? I mean this compound: "CC(=O)Oc1ccc(C(c2ccc(OC(C)=O)cc2)c2ccccn2)cc1" 0.00291

###

conditions: in DMF, 298.15 K
measurement-name: solubility (mole fraction)
Just the number, please, no unit attached.

Can you share its solubility (mole fraction)? I mean this molecule: "CC(=O)Oc1ccc(C(c2ccc(OC(C)=O)cc2)c2ccccn2)cc1" 0.00368

###

settings: in isopropanol, 298.15 K
measurement-name: solubility (mole fraction)
Just the number, please, no unit attached.

Can you share its solubility (mole fraction)? I mean this molecule: "CC(=O)Oc1ccc(C(c2ccc(OC(C)=O)cc2)c2ccccn2)cc1" 0.000118

###

conditions: in acetone, 278.15 K
measurement-name: solubility (mole fraction)

Can you share its solubility (mole fraction)? I mean this molecule: "CC(=O)Oc1ccc(C(c2ccc(OC(C)=O)cc2)c2ccccn2)cc1" 0.00153

The reported measurements were obtained from BigSolDB 2.1.
